All values here come from PubChem BioAssay (NCI).

test system: SNB-19 CNS; assay: NCI-60 one-dose screen, 48 h (100 = growth as untreated, 0 = no growth, -100 = all killed); details: 10 µM unless noted
About 83,000 compounds went through this panel and 20% of them were active in at least one assay; those are over-represented in the sample as a whole.
test readout: growth (%)
All answers are understood in %, so give the number only.

Would you please look over these solved cases?
compound | reading unit | growth
COc1ccc(C(=O)COc2ccc(/C=C3\Oc4ccccc4C3=O)cc2)cc1 | % | 90.9
O=C(Cc1ccc(F)c(F)c1)Nc1cc(C2(C(F)(F)F)CC2)nn1Cc1ccccc1 | % | 13.3
CCCCCCCOc1c(OC)cc(C2CC(=O)Nc3c2c(C)nn3-c2nc3ccccc3[nH]2)cc1OC (stereo not given) | % | 16.1
Cc1cc(O)c(C2=NN(c3ccc(S(N)(=O)=O)cc3)C(c3ccccc3Cl)C2)cc1Cl (stereo not given) | % | 58.1

Lab note: next compound to report on.
growth in this record for COc1ccc(-c2csc(C3=C(O)CN(C(C)C)C3=N)n2)cc1OC : 104

###

tested on: HCT-116 colon; assay: NCI-60 one-dose screen, 48 h (100 = growth as untreated, 0 = no growth, -100 = all killed); conditions: 10 µM unless noted
This is part of a sample that, as a whole, favours compounds with a hit. Of some 83,000 tested, about 20% had one in any assay.
test readout: growth (%)
All answers are understood in %, so give the number only.

Would you please look over these solved cases?
molecule | growth [%]
Cc1ccc(-c2cc(-c3cccnc3)[nH]c(=O)c2C#N)cc1 | 115
CC(C)CC(NC(=O)CN(Cc1ccccc1)S(C)(=O)=O)C(=O)O (stereo unspecified) | 100
COc1ccc(C(=NN=C(N)N)c2ccc(OC)cc2)cc1 | 21.5
N#Cc1nc(C#N)c(Sc2ccccc2)c(Sc2ccccc2)c1Sc1ccccc1 | -30.7
COc1cc(Cn2ncc3ccc(NC(=O)c4cc5ccccc5oc4=N)cc32)cc(OC)c1OC | 26.6
OC(COc1ccccc1Cl)COc1ccccc1Cl | 90.9

Lab note: next molecule to report on.
growth in this record for CC(CN1CCCCC1)C(=O)c1ccccc1 (stereo unspecified) : 112

###

test system: MCF7 breast; assay: NCI-60 one-dose screen, 48 h (100 = growth as untreated, 0 = no growth, -100 = all killed); settings: 10 µM unless noted
Compounds without any hit were thinned out: in the full panel of roughly 83,000, 20% have a hit.
Recorded growth for the following compounds
All answers are understood in %, so give the number only.

Would you please look over these solved cases?
compound | reading unit | growth
Cc1ccc2nc3ccccc3c(NCc3ccccc3)c2c1 | % | 11.2
COc1cc(C(=O)c2cc(C)c3[nH]c4ccc(Cl)cc4c3c2C)cc(OC)c1OC | % | 13.9
COc1ccc(S(=O)(=O)NCCNc2nccc(-c3c(-c4cccc(F)c4)nc4sccn34)n2)cc1 | % | 17.1

growth in this record for O=[N+]([O-])c1ccc(-c2cc(-c3ccc(Nc4nc(Nc5ccc(Cl)cc5)nc(Nc5ccc(Cl)cc5)n4)cc3)no2)cc1 : 83.1

growth in this record for COc1ccc2[nH]c(O)c(/C=c3/cc4c(c(-c5ccc(F)c(OC)c5)n3)=Nc3ccccc3-4)c2c1 : 1.29

growth in this record for CCCCC1CCCCN1C(=O)OCC (centres undefined) : 107

###

tested on: IGROV1 ovarian; assay: NCI-60 one-dose screen, 48 h (100 = growth as untreated, 0 = no growth, -100 = all killed); details: 10 µM unless noted
About 83,000 compounds went through this panel and 20% of them were active in at least one assay; those are over-represented in the sample as a whole.
// boundary case: growth equal to 40% maps to condition not met; strictly smaller maps to condition met

The following compounds have reported results that may help.
compound | class assignment
Cn1cc2c(c1)-c1nc(Nc3ccccc3)ncc1CC2 | condition not met
O=C(NCCCNc1cc(-c2cn(-c3ccccc3)nc2-c2cccc(O)c2)ccn1)c1cccc(O)c1 | condition not met
Clc1ccc(-c2c3ccc(=[N+]4CCCCC4)cc-3oc3cc(N4CCCCC4)ccc23)cc1 | condition met
CCOC(=O)c1c2c(n3ccc(NC(=O)OC(C)(C)C)cc13)C(=O)c1ncccc1C2=O | condition met
COc1ccc(-c2nc3ccc4[nH]ncc4c3c3c2CCCC3)cc1B(O)O | condition met

Confirm or reject: growth of COC(=O)c1c2c(c[n+]([O-])c1C)C(=O)C=CC2=O lies strictly below 40%
condition met

Confirm or reject: growth of O=C(Nc1ccc(-n2cc(-c3ccncc3)c(-c3ccc(Cl)c(O)c3)n2)cc1)N1CCOCC1 lies strictly below 40%
condition not met

Confirm or reject: growth of COC(=O)[C@]12CC[C@@H](C)[C@H](C)[C@@H]1C1=CC[C@@H]3[C@@]4(C)C(C=O)=C[C@@](C)(COC(C)=O)[C@@H]4[C@H](O)C[C@@]3(C)[C@]1(C)CC2 lies strictly below 40%
condition met

Confirm or reject: growth of COCN1CCC2N(COC)CCC3N(COC)CCC1N23 (centres undefined) lies strictly below 40%
condition not met

###

System: MCF7 breast
Experiment: NCI-60 one-dose screen, 48 h
Settings: 10 µM unless noted
Procedure: Growth inhibition of the MCF7 human tumor cell line is measured as a screen for anti-cancer activity. Cells are grown in 96 well plates and exposed to the test compound for 48 hours. Compounds are tested at a single concentration, which is 10^-5 M for most compounds. The reported endpoint is percent growth (GI% or GIPRCNT), where numbers from 0 - 100% represent growth inhibition, and numbers from -100% - 0 represent cell death. For example, a value of 40 represents 60% growth inhibition. […]
This is part of a sample that, as a whole, favours compounds with a hit. Of some 83,000 tested, about 20% had one in any assay. Active and inactive are the calls of the source. How the source made its calls: active means growth percent below 10; inactive means the rest.
Answer with one of the outcomes given here: active, inactive

The following compounds have reported results that may help.
compound | class assignment
CCc1ccccc1-n1c(-c2ccc(Cl)cc2)cc(-c2ccc(OC)cc2)c(C#N)c1=O | inactive
C=C(C)[C@@H]1CC[C@]2(C(=O)NC3CCCCC3)CC[C@]3(C)[C@H](CC[C@@H]4[C@@]5(C)CCCNC(C)(C)[C@@H]5CC[C@]43C)[C@@H]12 | inactive
Cc1ccc(C(=NN=C(N)N)c2ccc(C)cc2)cc1 | active
COc1ccc(-c2nc3c(N)c(CO)c(C)nc3o2)cc1 | inactive

Attention now turns to another entry.
What did this assay record as the result for CCc1c2c(nc3ccc(OC(=O)OCc4ccc(B5OC(C)(C)C(C)(C)O5)cc4)cc13)-c1cc3c(c(=O)n1C2)COC(=O)[C@]3(O)CC ?
active

###

system: RXF 393 renal; assay: NCI-60 one-dose screen, 48 h (100 = growth as untreated, 0 = no growth, -100 = all killed); settings: 10 µM unless noted
The panel holds about 83,000 compounds, 20% with a hit somewhere; the sample as a whole holds those more often.
// boundary case: growth equal to 20% maps to not satisfied; strictly smaller maps to satisfied

The following compounds have reported results that may help.
compound | class assignment
COc1cc(/C=N/NC(=O)Cn2c(C(C)C)nc3ccccc32)ccc1O | not satisfied
COC(=O)[C@]12CC[C@@H](C)[C@H](C)[C@@H]1C1=CC[C@@H]3[C@@]4(C)C(C=O)=C[C@@](C)(COC(=O)c5ccco5)C4=CC[C@@]3(C)[C@]1(C)CC2 | satisfied

Confirm or reject: growth of O=C(O)CN1C(=O)CCC1=O lies strictly below 20%
not satisfied

Confirm or reject: growth of Cc1cc(NCc2cc(Nc3ccnc4cc(Cl)ccc34)ccc2F)nc(Cl)n1 lies strictly below 20%
not satisfied

Confirm or reject: growth of COc1ccc(CNC(=O)C(O)C(Cc2ccccc2)NC(=O)c2[nH]c3ccccc3c(=O)c2C)cc1OC (centres undefined) lies strictly below 20%
not satisfied

Confirm or reject: growth of COc1ccc(C2CC(c3cccc(OC)c3)=NN2C(=O)c2cc(OC)c(OC)c(OC)c2)cc1 (centres undefined) lies strictly below 20%
not satisfied

Confirm or reject: growth of COc1ccc2c(c1)O/C(=C/c1ccc(OCC(=O)c3ccccc3)cc1)C2=O lies strictly below 20%
not satisfied

Confirm or reject: growth of Cc1ccccc1NC(=O)N/C(N)=N/c1nc(-c2cccc([N+](=O)[O-])c2)cs1 lies strictly below 20%
not satisfied

Confirm or reject: growth of CN1C(=O)N(C)C2C1NN=c1s/c(=C\c3ccccc3)c(=O)n12 (centres undefined) lies strictly below 20%
not satisfied

Confirm or reject: growth of Oc1ccc(CN2CCC(N3CCOCC3)CC2)c2cccnc12 lies strictly below 20%
satisfied

Confirm or reject: growth of CN(C)CCNc1nc2ccccc2c2c1c1c(n2Cc2ccccc2)-c2ccccc2C1=O lies strictly below 20%
satisfied

Confirm or reject: growth of CC(C)(C)CC(C)(C)Nc1c(-c2ccncc2)nc2cnccn12 lies strictly below 20%
not satisfied
